System: L428 Hodgkin's lymphoma
Assay: In vitro cytotoxicity, 3H-thymidine incorporation, L428 cells
Type: cell-based
Details: exposed 1-2 hours, 3H-thymidine incorporation 72 hours later
value.type: IC50
Quote the value and follow it with the unit of measurement.

Tell me its IC50 given CC[C@H](C)[C@@H]([C@@H](CC(=O)N1CCC[C@H]1[C@H](OC)[C@@H](C)C(=O)N[C@@H](C)[C@H](OC(=O)c1ccc(C(C)=O)cc1)c1ccccc1)OC)N(C)C(=O)[C@@H](NC(=O)[C@H](C(C)C)N(C)C)C(C)C [Compound 39a, 4-acetyl-benzoic Ester of Auristatin E] as the entry.
13 nM

###

Tested on: L540 Hodgkin's lymphoma
Assay: In vitro cytotoxicity, 3H-thymidine incorporation, L540 cells
Assay type: cell-based
Settings: exposed 1-2 hours, 3H-thymidine incorporation 72 hours later
value.type: IC50 (nM)
Could you give me the number in nM? Just the number is fine.

Provide IC50, recorded with L540 Hodgkin's lymphoma, of CC[C@H](C)[C@@H]([C@@H](CC(=O)N1CCC[C@H]1[C@H](OC)[C@@H](C)C(=O)N[C@@H](C)[C@H](OC(=O)c1ccc(C(C)=O)cc1)c1ccccc1)OC)N(C)C(=O)[C@@H](NC(=O)[C@H](C(C)C)N(C)C)C(C)C [Compound 39a, 4-acetyl-benzoic Ester of Auristatin E]
16

###

Test system: IM-9 (Multiple myeloma)
Experiment: In vitro cytotoxicity, 3H-thymidine incorporation, IM-9 cells
Format: cell-based
Conditions: exposed 1-2 hours, 3H-thymidine incorporation 72 hours later
value.type: IC50 (nM)
Could you give me the number in nM? Just the number is fine.

Tell me its IC50 given CC[C@H](C)[C@@H]([C@@H](CC(=O)N1CCC[C@H]1[C@H](OC)[C@@H](C)C(=O)N[C@@H](C)[C@H](OC(=O)c1ccc(C(C)=O)cc1)c1ccccc1)OC)N(C)C(=O)[C@@H](NC(=O)[C@H](C(C)C)N(C)C)C(C)C [Compound 39a, 4-acetyl-benzoic Ester of Auristatin E] as the entry.
50

###

Test system: Daudi Burkitt's lymphoma cells
Assay: In vitro cytotoxicity, 3H-thymidine incorporation, Daudi cells
Format: cell-based
Settings: Daudi Burkitt's lymphoma; exposed 1-2 hours, 3H-thymidine incorporation 72 hours later
value.type: IC50 (nM)
Could you give me the number in nM? Just the number is fine.

Tell me its IC50 given CC[C@H](C)[C@@H]([C@@H](CC(=O)N1CCC[C@H]1[C@H](OC)[C@@H](C)C(=O)N[C@@H](C)[C@H](OC(=O)c1ccc(C(C)=O)cc1)c1ccccc1)OC)N(C)C(=O)[C@@H](NC(=O)[C@H](C(C)C)N(C)C)C(C)C [Compound 39a, 4-acetyl-benzoic Ester of Auristatin E] as the entry.
15

###

Tested on: Karpas 299 (ALCL)
Test: In vitro cytotoxicity, XTT, Karpas 299 cells
Format: cell-based
Conditions: exposed 2 hr, washed, XTT 96 hr later
value.type: IC50

Tell me its IC50 given CC[C@H](C)[C@@H]([C@@H](CC(=O)N1CCC[C@H]1[C@H](OC)[C@@H](C)C(=O)N[C@@H](C)[C@H](OC(=O)c1ccc(C(C)=O)cc1)c1ccccc1)OC)N(C)C(=O)[C@@H](NC(=O)[C@H](C(C)C)N(C)C)C(C)C [Compound 39a, 4-acetyl-benzoic Ester of Auristatin E] as the entry.
4 nM

###

Tested on: AU565 (breast)
Assay: In vitro cytotoxicity, 3H-thymidine incorporation, AU565 cells
Assay type: cell-based
Conditions: exposed 1-2 hours, 3H-thymidine incorporation 72 hours later
value.type: pIC50
// scale note: pIC50 = -log10(conc_M); give the bare number

Tell me its pIC50 given CC[C@H](C)[C@@H]([C@@H](CC(=O)N1CCC[C@H]1[C@H](OC)[C@@H](C)C(=O)N[C@@H](C)[C@H](OC(=O)c1ccc(C(C)=O)cc1)c1ccccc1)OC)N(C)C(=O)[C@@H](NC(=O)[C@H](C(C)C)N(C)C)C(C)C [Compound 39a, 4-acetyl-benzoic Ester of Auristatin E] as the entry.
8.22

###

System: L2987 human lung adenocarcinoma cells
Experiment: In vitro cytotoxicity, 3H-thymidine incorporation, L2987 cells
Type: cell-based
Settings: L2987 lung; exposed 1-2 hours, 3H-thymidine incorporation 72 hours later
value.type: pIC50
// scale note: pIC50 = -log10(conc_M); give the bare number

Provide pIC50, recorded with L2987 human lung adenocarcinoma cells, of CC[C@H](C)[C@@H]([C@@H](CC(=O)N1CCC[C@H]1[C@H](OC)[C@@H](C)C(=O)N[C@@H](C)[C@H](OC(=O)c1ccc(C(C)=O)cc1)c1ccccc1)OC)N(C)C(=O)[C@@H](NC(=O)[C@H](C(C)C)N(C)C)C(C)C [Compound 39a, 4-acetyl-benzoic Ester of Auristatin E]
9.05

###

Tested on: Kato III human gastric carcinoma cells
Assay: In vitro cytotoxicity, 3H-thymidine incorporation, Kato III cells
Assay type: cell-based
Details: exposed 1-2 hours, 3H-thymidine incorporation 72 hours later
value.type: IC50

Tell me its IC50 given CC[C@H](C)[C@@H]([C@@H](CC(=O)N1CCC[C@H]1[C@H](OC)[C@@H](C)C(=O)N[C@@H](C)[C@H](OC(=O)c1ccc(C(C)=O)cc1)c1ccccc1)OC)N(C)C(=O)[C@@H](NC(=O)[C@H](C(C)C)N(C)C)C(C)C [Compound 39a, 4-acetyl-benzoic Ester of Auristatin E] as the entry.
5 nM
